Sourced from the supplement of paper PMC10567573

# Run Description: protein stability index of a GFP-peptide fusion (GPS, HEK-293T) (PSI 1-6); higher = more stable;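 also: 24-mer peptide tiles fused after GFP, lentivirally expressed, FACS-sorted into six equal bins by GFP/DsRed ratio, decoded by Illumina sequencing, PSI is the read-weighted mean bin number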
# Setup Conditions: treatment: MLN4924 1 uM, 8 h; c terminus: a fixed tail appended
Observable: protein stability index
Numbers only.

Examples from the recorded data:
NSKEDAFSGTDWMLEKMDLKEFDL [ATF4]	4.55
RKDHLKNHLQTHDPNKMAFGCEEC [PLAGL1]	4.93
CAECSQYLDETCTCFVRDGKTYCK [ISL2]	4.74
TEHMKTHTGLKPYECGVCAKKFMW [ZBTB22]	2.77
SDFLTLHSIIISLVEAGAHTDMTN [FEM1B]	2.93
NISGLRFETQLKTLCQFPETLLGD [KCNA3]	3.03

Problem: Record request: protein stability index value, item TSFNHMDSDKLSGLWSRISHLVLP [TOR1AIP2]
Result: 2.33
